These data points were gathered from patent US20220339270A1.

Each entry below lists one item and its recorded OD450 value.
target: T1, extracellular tau in the form of paired helical filaments (ePHF tau) (UniProt P10636-8 1-441, limits assumed); experiment: ePHF tau ELISA, ePHF coated; antibody at 500.0 ng/ml; anti-mouse-HRP
T1 construct: Aggregated, hyperphosphorylated tau preparation; not a single defined polypeptide
T1 sequence (P10636 other isoform, or with tags, fused parts or gaps limits assumed): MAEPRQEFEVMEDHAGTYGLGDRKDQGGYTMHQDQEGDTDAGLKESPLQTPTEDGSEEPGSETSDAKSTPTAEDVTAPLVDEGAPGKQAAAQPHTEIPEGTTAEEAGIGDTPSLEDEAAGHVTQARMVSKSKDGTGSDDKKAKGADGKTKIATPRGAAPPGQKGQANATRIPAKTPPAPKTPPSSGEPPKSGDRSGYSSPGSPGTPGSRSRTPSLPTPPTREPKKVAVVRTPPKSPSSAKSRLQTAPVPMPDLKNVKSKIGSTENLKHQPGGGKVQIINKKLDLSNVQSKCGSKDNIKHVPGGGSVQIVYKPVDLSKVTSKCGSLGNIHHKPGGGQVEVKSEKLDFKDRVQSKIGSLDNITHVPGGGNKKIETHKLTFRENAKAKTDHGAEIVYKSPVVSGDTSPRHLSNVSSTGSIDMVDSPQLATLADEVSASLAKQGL
Answer in OD450, number only, no unit symbol.

Illustrative cases are given below, each with its answer.
[
  {
    "binder": "anti-tau antibody MC1 expressed from viral genome construct MC1HF.F2AL (TAU_ITR72; SEQ ID NO: 2061) (antibody, V domains shown) VH: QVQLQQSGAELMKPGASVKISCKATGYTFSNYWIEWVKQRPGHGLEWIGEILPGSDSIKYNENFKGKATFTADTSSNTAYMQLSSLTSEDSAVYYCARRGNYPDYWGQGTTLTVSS VL: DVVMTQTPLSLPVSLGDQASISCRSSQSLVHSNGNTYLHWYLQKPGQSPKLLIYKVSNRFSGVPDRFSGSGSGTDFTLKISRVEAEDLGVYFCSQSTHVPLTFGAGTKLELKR",
    "unit-spec": "OD450",
    "OD450": 1
  },
  {
    "binder": "anti-tau antibody MC1 expressed from viral genome construct MC1LF2AH (TAU_ITR79; SEQ ID NO: 2068) (antibody, V domains shown) VH: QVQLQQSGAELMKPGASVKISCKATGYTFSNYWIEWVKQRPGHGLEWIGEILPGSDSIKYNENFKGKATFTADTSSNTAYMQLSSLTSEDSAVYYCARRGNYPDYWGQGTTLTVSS VL: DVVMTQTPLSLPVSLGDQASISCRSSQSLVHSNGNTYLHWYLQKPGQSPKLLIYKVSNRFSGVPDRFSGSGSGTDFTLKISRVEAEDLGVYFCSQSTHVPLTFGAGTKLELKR",
    "unit-spec": "OD450",
    "OD450": 1
  },
  {
    "binder": "anti-tau antibody MC1 expressed from viral genome construct MC1HF.P2AL (TAU_ITR73; SEQ ID NO: 2062) (antibody, V domains shown) VH: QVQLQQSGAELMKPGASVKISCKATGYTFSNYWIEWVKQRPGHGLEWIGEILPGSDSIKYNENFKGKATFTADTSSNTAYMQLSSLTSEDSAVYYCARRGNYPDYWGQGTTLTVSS VL: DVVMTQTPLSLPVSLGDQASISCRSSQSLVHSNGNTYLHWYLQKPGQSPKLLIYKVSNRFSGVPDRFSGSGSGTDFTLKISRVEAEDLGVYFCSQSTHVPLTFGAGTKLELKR",
    "unit-spec": "OD450",
    "OD450": 0.9
  },
  {
    "binder": "anti-tau antibody MC1 expressed from viral genome construct MC1LP2AH (TAU_ITR82; SEQ ID NO: 2071) (antibody, V domains shown) VH: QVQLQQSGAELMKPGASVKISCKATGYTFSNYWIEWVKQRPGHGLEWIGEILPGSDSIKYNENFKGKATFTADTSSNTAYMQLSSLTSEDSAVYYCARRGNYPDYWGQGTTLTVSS VL: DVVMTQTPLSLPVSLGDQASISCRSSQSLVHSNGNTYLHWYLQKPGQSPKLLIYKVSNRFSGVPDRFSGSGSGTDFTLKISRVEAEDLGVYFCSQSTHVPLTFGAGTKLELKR",
    "unit-spec": "OD450",
    "OD450": 0.7
  }
]

query: Entry anti-tau antibody MC1 expressed from viral genome construct MC1LF.P2AH (TAU_ITR83; SEQ ID NO: 2072) (antibody, V domains shown) VH: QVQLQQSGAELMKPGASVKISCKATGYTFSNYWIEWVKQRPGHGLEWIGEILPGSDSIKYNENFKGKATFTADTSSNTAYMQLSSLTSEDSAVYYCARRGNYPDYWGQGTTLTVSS VL: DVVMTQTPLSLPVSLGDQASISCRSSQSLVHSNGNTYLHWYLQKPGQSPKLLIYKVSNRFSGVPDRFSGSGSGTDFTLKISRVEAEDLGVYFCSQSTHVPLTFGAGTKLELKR : reported OD450 = ?
result: 0.4
